Would you mind telling me the reported Activity of each entry?
# System Tested: Cannabinoid receptor 1 (Homo sapiens, UniProt P21554)
# Sequence (P21554 whole entry): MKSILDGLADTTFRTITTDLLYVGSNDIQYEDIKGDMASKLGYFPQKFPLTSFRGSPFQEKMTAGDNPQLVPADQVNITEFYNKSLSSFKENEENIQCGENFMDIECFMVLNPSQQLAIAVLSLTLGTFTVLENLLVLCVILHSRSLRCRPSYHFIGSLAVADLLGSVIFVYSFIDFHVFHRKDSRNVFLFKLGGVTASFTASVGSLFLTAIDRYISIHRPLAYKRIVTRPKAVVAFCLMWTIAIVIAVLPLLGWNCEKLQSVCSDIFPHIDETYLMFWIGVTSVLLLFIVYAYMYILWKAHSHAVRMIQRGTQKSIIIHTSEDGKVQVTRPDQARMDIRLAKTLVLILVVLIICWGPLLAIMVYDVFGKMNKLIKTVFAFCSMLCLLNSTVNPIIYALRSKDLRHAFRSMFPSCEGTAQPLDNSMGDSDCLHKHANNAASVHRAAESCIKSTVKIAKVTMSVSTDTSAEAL
# Assay Details: Agonist activity at human CB1-receptor expressed in CHO-K1 cells coexpressing G-alpha16 at 10 uM by Fluo-4-AM dye based calcium mobilization assay
# Format: cell-based
# Setup Conditions: cho-k1, 10 µM

Name the recorded Activity for O=C(NC12CC3CC(CC(C3)C1)C2)c1cn(CCN2CCOCC2)c2ccncc12 .
< 50%

Name the recorded Activity for O=C(NC12CC3CC(CC(C3)C1)C2)c1nn(CCN2CCOCC2)c2ccccc12 .
> 50%

Name the recorded Activity for O=C(NC12CC3CC(CC(C3)C1)C2)c1nc2ccccc2n1CCN1CCOCC1 .
< 50%

Name the recorded Activity for CCCCCn1nc(C(=O)NC23CC4CC(CC(C4)C2)C3)c2ccccc21 .
> 50%

Name the recorded Activity for O=C(NC12CC3CC(CC(C3)C1)C2)c1cc2cnccc2[nH]1 .
< 50%

Name the recorded Activity for O=C(NC12CC3CC(CC(C3)C1)C2)c1nc2ccccc2n1CCCCCO .
< 50%

Name the recorded Activity for O=C(NC12CC3CC(CC(C3)C1)C2)c1cc2cccnc2n1CCN1CCOCC1 .
> 50%

Name the recorded Activity for O=C(NC12CC3CC(CC(C3)C1)C2)c1n[nH]c2ccccc12 .
> 50%

Name the recorded Activity for O=C(NC12CC3CC(CC(C3)C1)C2)c1cc2cnccc2n1CCN1CCOCC1 .
< 50%

Name the recorded Activity for CCCCCn1c(C(=O)NC23CC4CC(CC(C4)C2)C3)cc2cnccc21 .
< 50%

Name the recorded Activity for O=C(NC12CC3CC(CC(C3)C1)C2)c1c[nH]c2cccnc12 .
< 50%

Name the recorded Activity for O=C(NC12CC3CC(CC(C3)C1)C2)c1cn(CCN2CCOCC2)c2cccnc12 .
< 50%

Name the recorded Activity for O=C(NC12CC3CC(CC(C3)C1)C2)c1cn(CCN2CCOCC2)c2ncccc12 .
< 50%

Name the recorded Activity for O=C(NC12CC3CC(CC(C3)C1)C2)c1cc2ncccc2[nH]1 .
< 50%

Name the recorded Activity for O=C(NC12CC3CC(CC(C3)C1)C2)c1c[nH]c2ncccc12 .
< 50%

Name the recorded Activity for CCCCCn1cc(C(=O)NC23CC4CC(CC(C4)C2)C3)c2cccnc21 .
> 50%

Name the recorded Activity for O=C(NC12CC3CC(CC(C3)C1)C2)c1nc2ccccc2[nH]1 .
< 50%

Name the recorded Activity for CCCCCn1c(C(=O)NC23CC4CC(CC(C4)C2)C3)cc2cccnc21 .
< 50%

Name the recorded Activity for O=C(NC12CC3CC(CC(C3)C1)C2)c1cc2ncccc2n1CCN1CCOCC1 .
< 50%

Name the recorded Activity for CCCCCn1c(C(=O)NC23CC4CC(CC(C4)C2)C3)nc2ccccc21 .
< 50%

Name the recorded Activity for O=C(NC12CC3CC(CC(C3)C1)C2)c1c[nH]c2ccncc12 .
< 50%

Name the recorded Activity for CCCCCn1c(C(=O)NC23CC4CC(CC(C4)C2)C3)cc2ncccc21 .
< 50%
